Hello, the source for this data is the OligoGym collection, in case you need it.

# Subject of test: RPL27
# Assay explanation: pooled miR-30 sensor sort-seq; sequence = guide strand; note: reference of the scale not given here
# Stated conditions: shRNA
// N strictly below -0.7 in sensor-assay potency score (higher = more potent); Y otherwise

Quick check, sensor-assay potency score (higher = more potent) >= -0.7? "TTTATCTTTGATCTCTTGGCGA" Y

Check if sensor-assay potency score (higher = more potent) >= -0.7 (inclusive). Item: "TTTAAGAGCAGGATCTCTGAAG" Y

hey, is sensor-assay potency score (higher = more potent) for this one >= -0.7? "AGGATCTCTGAAGACATCCTTA" N

In plain terms: is recorded sensor-assay potency score (higher = more potent) at least -0.7 for "ATATCCACAGAGTACCTTGTGG" ? Y

Is reported sensor-assay potency score (higher = more potent) greater than or equal to -0.7 here: "TTCTTCACGATGACAGCTTTGC" N

Please indicate if the recorded sensor-assay potency score (higher = more potent) for "TTATCTTTGATCTCTTGGCGAT" meets or exceeds -0.7. Y

----------
# Subject of test: C15orf42
# Assay explanation: pooled miR-30 sensor sort-seq; sequence = guide strand
# Stated conditions: shRNA
Give sensor-assay potency score (higher = more potent) for every item shown.
Answer with a bare number; do not write a unit.

Look up and report measured sensor-assay potency score (higher = more potent) for this entry: "TTCAACATCTTTAAGGAACGGC" 0.686

Quick one: give measured sensor-assay potency score (higher = more potent) for "TACAACATGATTTCTCCTGTGG" 0.642

Quick one: give measured sensor-assay potency score (higher = more potent) for "TATACTATCCACAACATCTGAG" 0.285

Return sensor-assay potency score (higher = more potent) for the following sequence: "TTCTTGATGAGCTATAGTGGAT" -1.03

Name the recorded sensor-assay potency score (higher = more potent) of the sequence listed here: "TTGGTCTGACTTATCTTGCTGG" -0.193

----------
# Subject of test: BRP44L
# Assay explanation: pooled miR-30 sensor sort-seq; sequence = guide strand
# Stated conditions: shRNA
sensor-assay potency score (higher = more potent) below -0.7 gives f; sensor-assay potency score (higher = more potent) at or above it gives t.

Is reported sensor-assay potency score (higher = more potent) greater than or equal to -0.7 here: "TACCTTGTAGGCAAATCTCATG" f

Decide: is the reported value of sensor-assay potency score (higher = more potent) for "TCAAAGAATAGCAACAGAGGGC" equal to or greater than -0.7? t

Quick check: does "TAGTCCCGGAAATCCTTGCTTC" have sensor-assay potency score (higher = more potent) greater than or equal to -0.7? f

// inclusive: sensor-assay potency score (higher = more potent) at least -0.7? input: "TCGTGTTTGATAAGCCGCCCTC" t

Form field: sensor-assay potency score (higher = more potent) at least -0.7? Entry: "TTTTTCATTAAGTAAATTCTAA" f

Does the reported sensor-assay potency score (higher = more potent) for "TTCGGACATAGTCCGCCGCTTT" fall at or above the -0.7 mark? f

Answer whether sensor-assay potency score (higher = more potent) of "TTTGATAAGCCGCCCTCCCTGG" is greater than or equal to -0.7. t

----------
Task for the reader: assign each of the following sequences its reported sensor-assay potency score (higher = more potent).
# Subject of test: BCL7A
# Assay explanation: pooled miR-30 sensor sort-seq; sequence = guide strand
# Stated conditions: shRNA
Form field (numeric): enter value without unit.

Provide sensor-assay potency score (higher = more potent) value for the following sequence: "TTCATCGAATGTTCCATCGAGG" -0.362

Give recorded sensor-assay potency score (higher = more potent). "ATTCTGACCACTGCGATCCTGC" -0.637

Identify measured sensor-assay potency score (higher = more potent) corresponding to "TTGAAATTCAGGAACATTTTGA" -0.466

Please supply the value of reported sensor-assay potency score (higher = more potent) for the item "TTCAGGAACATTTTGATTCTTC" -0.0367

Return sensor-assay potency score (higher = more potent) (reported value) for this sequence: "TTTCTCTGAGCTGTTCATCGAA" -0.326

Identify the reported sensor-assay potency score (higher = more potent) for the following entry. "TAACACACAACTCAAAGGGAGT" -1.29

Read off the recorded sensor-assay potency score (higher = more potent) for "TTGTACAAACCATATCTACTGA" -0.0617

Return sensor-assay potency score (higher = more potent) for the following sequence: "TTTAAGACAGAAACCTTTCGGC" 0.668

Fill in reported sensor-assay potency score (higher = more potent) for this entry: "TTGTGGAATGTGTAGCCGCAGC" -1.01

Give reported sensor-assay potency score (higher = more potent) value for "TACTGCTGTACAACACACCAAA" -0.883

Could you please provide reported sensor-assay potency score (higher = more potent) for "TTGATATCATCTTTGGCCCGGC" ? Thanks! -0.0024

Determine its reported sensor-assay potency score (higher = more potent): "TTGTTTTTGTCATCAACCTTGG" -0.192

State its sensor-assay potency score (higher = more potent): "TATCGTTACATAGAGAAGTGGG" 0.305

Supply reported sensor-assay potency score (higher = more potent) belonging to this sequence: "ATAATGAACATTCCAAACCATG" -1.57

Quick one: give measured sensor-assay potency score (higher = more potent) for "TACAGCAGCAACACAAATGGAA" -0.286

Please give the documented sensor-assay potency score (higher = more potent) of "TTAGAAAATGGAATCCAGCAGA" -0.0728

Determine from records and report sensor-assay potency score (higher = more potent) for "TTCTCTGAGCTGTTCATCGAAT" -0.798
